Assay: chemical genetic growth profiling, strain panel (AID 1159580);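 further: tested at 20 µM; growth read once vehicle control cultures reached saturation at 30 °C; 1 = growth at the plate median or of vehicle wells; lower values mean less growth of the strain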
Conditions: S. cerevisiae deletion strains, growth OD, locus YNL233W, strain BNI4, active compounds read low
In all, about 5,500 compounds went through this assay and about 2,000 (36%) were called active. Not shown: some 18% with an inconclusive outcome. Some of the results follow.
# reported normalized growth; entries follow
Hey, just send me the number, nothing else.

{"COMPOUND": "COc1ccccc1OCC(O)COC(N)=O (stereo unspecified)", "NUMBER": 0.995}
{"COMPOUND": "CON", "NUMBER": 1.04}
{"COMPOUND": "NS(=O)(=O)c1cc2c(cc1Cl)NCNS2(=O)=O", "NUMBER": 1.01}
{"COMPOUND": "CNC(C)[C@@H]1CC[C@@H](N)[C@@H](OC2[C@@H](N)C[C@@H](N)[C@H](OC3OC[C@](C)(O)[C@H](NC)[C@H]3O)[C@H]2O)O1 (stereo partly specified)", "NUMBER": 1.01}
{"COMPOUND": "C=C(C)C1Cc2c(ccc(C(=O)O)c2O)O1 (stereo unspecified)", "NUMBER": 1.01}

Next up:
Query: Requested field: normalized growth. Item: Cc1ccc(O)c(C(CCN(C(C)C)C(C)C)c2ccccc2)c1 (stereo unspecified)
Result: 1.01

---

Experiment: chemical genetic growth profiling, strain panel (AID 1159580);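 further: tested at 20 µM; growth read once vehicle control cultures reached saturation at 30 °C; 1 = growth at the plate median or of vehicle wells; lower values mean less growth of the strain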
Conditions: S. cerevisiae deletion strains, growth OD, locus YLR058C, strain SHM2
About 2,000 (36%) of roughly 5,500 compounds were called active. Another 18% or so got no clear call; they are omitted. No stated cut-off is given here; in the data, active means normalized growth mostly below about 0.91 (no sharp cut-off); inconclusive means no clear call, values can overlap the other calls; inactive means mostly above about 0.92. This is one part of the list.
Please state which outcome applies, choosing from class 1 = active, class 0 = inactive

// known answers, use as guide
{"COMPOUND": "O=C1c2cccc(O)c2C(=O)c2c(O)cccc21", "CATEGORY_LABEL": "class 1"}
{"COMPOUND": "O=C(O)CC[N+](=O)[O-]", "CATEGORY_LABEL": "class 0"}
{"COMPOUND": "C[C@H]1C(=O)CCC2[C@]3(C)CC[C@@]4(C)C5CC(C)(C)CC[C@]5(C)CC[C@]4(C)C3CC[C@@]21C (some centres not stated)", "CATEGORY_LABEL": "class 0"}
{"COMPOUND": "CC(C)=CCC/C(C)=C/CO", "CATEGORY_LABEL": "class 0"}

Query: Would you mind telling me which call this test gave "C/C(=C\CO)CC[C@H](C)CCC[C@H](C)CCCC(C)C" ?
Result: class 0

Query: Input "Cc1cc(O)c2c(c1)C(=O)c1cccc(O)c1C2=O"
Result: class 0

Query: Input "O=C1C=C(O)c2ccccc2C1=O"
Result: class 0

Query: Input "CNC(C)(C)Cc1ccccc1"
Result: class 0

Query: Input "O=C1C=CC(=O)c2c(O)cccc21"
Result: class 0

Query: Input COc1ccccc1OCC(O)COC(N)=O (configuration not stated)
Result: class 0

Query: Input Cc1ccc(O)c(C(CCN(C(C)C)C(C)C)c2ccccc2)c1 (configuration not stated)
Result: class 0

Query: Input "O=C(O)c1cc(O)c2c(c1)C(=O)c1cc(O)cc(O)c1C2=O"
Result: class 0

Query: Input NC(Cc1ccc(Cl)cc1)C(=O)O (configuration not stated)
Result: class 0

Query: Input "CC(C)OC(=O)Nc1cccc(Cl)c1"
Result: class 0

Query: Input "CC(C)N=C(N)N=C(N)Nc1ccc(Cl)cc1"
Result: class 0

Query: Input CC(=O)OC[C@@]1(O)C[C@@]23CCC4c5ccoc5CC[C@]4(C)C2CC[C@@H]1C3 (some centres not stated)
Result: class 0

Query: Input "CN1C(=O)CC[C@H]1c1cccnc1"
Result: class 0

Query: Input "NC(=NCCCCCCN=C(N)N=C(N)Nc1ccc(Cl)cc1)N=C(N)Nc1ccc(Cl)cc1"
Result: class 1

Query: Input "CN(C)CCC[C@@]1(c2ccc(F)cc2)OCc2cc(C#N)ccc21"
Result: class 0
